pIC50: −log10 of the molar value.
Note to self: these molecules have pIC50 reported for human DGAT1 (Homo sapiens) in various publications.

molecule	result.qualifier	pIC50
COc1ccccc1C(=O)NC(C)(C)C(=O)Nc1nc(-c2ccccc2)c(Cc2ccccc2)s1	=	8.07
COC(=O)CCCC(=O)Nc1ccc(C2CCN(C(=O)Nc3c(Cl)cccc3Cl)CC2)cc1	=	7.17
CC(C)(C)NC(=O)N1CCN(c2ccc(NC(=O)c3ccccc3-c3ccc(C(F)(F)F)cc3)cc2)CC1	=	5.10
O=C(CNCc1ccc(Cl)cc1)Nc1ccc(N2CCN(C(=O)Nc3c(Cl)cccc3Cl)CC2)cc1	=	7.12
CN(CC(=O)O)C(=O)[C@H]1CC[C@H](c2ccc(C3=Nc4c(N)ncnc4OC3(C)C)cc2)CC1	>	8.00
O=C(CCCc1ccccc1)Nc1ccc(N2CCN(C(=O)Cc3ccccc3)CC2)cc1	=	5.59
Cc1nc(N)c2c(n1)OC(C)(C)C(c1ccc([C@H]3CC[C@H](CC(=O)N(C)CC(=O)O)CC3)cc1)=N2	>	8.00
O=C(O)CC1(CC(F)(F)F)CCc2cc(-c3ccc(NC(=O)NC4CCCCC4)cc3)ccc2C1=O (centres unmarked)	=	8.21
O=C1CN([C@H]2CC[C@H](OC3CCN(c4ccc(-c5nc6cc(C(F)(F)F)ccc6[nH]5)cn4)CC3)CC2)S(=O)(=O)N1	=	8.30
O=C1CN([C@H]2CC[C@H](OC3CCN(c4ccc(-c5nc6cc(F)c(F)cc6[nH]5)cn4)CC3)CC2)S(=O)(=O)N1	=	8.40
